- System Name: full length N-terminally FLAG-tagged PARP1 (Homo sapiens, UniProt P09874)
- Sequence (P09874 whole entry): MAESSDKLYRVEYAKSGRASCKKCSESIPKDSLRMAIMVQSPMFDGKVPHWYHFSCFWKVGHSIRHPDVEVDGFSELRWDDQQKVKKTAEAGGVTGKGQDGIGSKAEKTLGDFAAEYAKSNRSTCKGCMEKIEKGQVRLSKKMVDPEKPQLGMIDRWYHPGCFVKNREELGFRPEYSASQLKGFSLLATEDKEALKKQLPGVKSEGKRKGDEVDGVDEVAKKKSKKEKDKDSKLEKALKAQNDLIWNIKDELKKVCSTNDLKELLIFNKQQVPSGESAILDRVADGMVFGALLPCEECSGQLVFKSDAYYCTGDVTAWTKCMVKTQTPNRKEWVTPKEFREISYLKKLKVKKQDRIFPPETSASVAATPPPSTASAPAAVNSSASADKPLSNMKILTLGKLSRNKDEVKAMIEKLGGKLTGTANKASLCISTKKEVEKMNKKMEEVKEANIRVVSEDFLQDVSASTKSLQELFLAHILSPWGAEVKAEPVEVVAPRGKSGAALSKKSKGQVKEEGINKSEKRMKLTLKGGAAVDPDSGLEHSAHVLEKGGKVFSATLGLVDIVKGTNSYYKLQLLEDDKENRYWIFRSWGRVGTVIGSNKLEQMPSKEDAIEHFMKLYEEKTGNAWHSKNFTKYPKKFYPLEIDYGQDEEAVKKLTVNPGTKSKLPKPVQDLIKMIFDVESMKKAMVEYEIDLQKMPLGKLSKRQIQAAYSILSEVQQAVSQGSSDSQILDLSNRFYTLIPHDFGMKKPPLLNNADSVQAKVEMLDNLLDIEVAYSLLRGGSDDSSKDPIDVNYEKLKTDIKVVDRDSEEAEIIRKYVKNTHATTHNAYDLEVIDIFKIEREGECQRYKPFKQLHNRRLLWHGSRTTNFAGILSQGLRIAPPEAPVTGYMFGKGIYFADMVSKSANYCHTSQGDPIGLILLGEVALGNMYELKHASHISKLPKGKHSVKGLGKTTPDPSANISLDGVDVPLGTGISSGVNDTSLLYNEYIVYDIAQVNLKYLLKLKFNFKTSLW
- Run Description: PARP1 biochemical DELFIA assay (auto-PARylation)
- Set-up: recombinant full length human N-terminally FLAG-tagged PARP1
- Conditions Used: binned IC50, biochemical auto-PARylation assay
Endpoint Name: IC50

# input Query IC50 for CCc1cc(C)c(C2CCN(C3CCN(c4ccc(C(=O)NC)nc4)CC3)C2)[nH]c1=O (single isomer, unassigned) [Compound 363b]
# output < 10 nM

# input Query IC50 for CC(=O)Nc1ccc(N2CCC(N3CCC(c4cc5ccccc5c(=O)[nH]4)C3)CC2)cc1 (single isomer, unassigned) [Compound 289a]
# output 100 to 1000 nM

# input Query IC50 for CNC(=O)c1ccc(N2CCC(N3CC(c4cc5cccc(F)c5c(=O)[nH]4)CC3=O)CC2)cn1 (racemic) [Compound 362rac]
# output < 10 nM

---

- System Name: full length N-terminally FLAG-tagged PARP1 (Homo sapiens)
- Run Description: PARP1 biochemical DELFIA assay (auto-PARylation)
- Design: recombinant full length human N-terminally FLAG-tagged PARP1
- Conditions Used: binned IC50, PARP1 biochemical DELFIA assay
Would you kindly list IC50 for each of these compounds?

# input Query IC50 for CCc1cnc(C2CCCN(C3CCN(c4ccc(C(=O)NC)nc4)CC3)C2)[nH]c1=O (single isomer, unassigned) [Compound 31b]
# output 10 to 100 nM

# input Query IC50 for CNC(=O)c1ccc(N2CCC(n3ccc(-c4nc5ccccc5c(=O)[nH]4)n3)CC2)cn1 [Compound 15]
# output 100 to 1000 nM

# input Query IC50 for CNC(=O)c1ccc(N2CCC(N3CCC(c4nc5c(c(C(F)(F)F)nn5C)c(=O)[nH]4)C3)CC2)cn1 (single isomer, unassigned) [Compound 187a]
# output 10 to 100 nM

# input Query IC50 for O=c1[nH]c(C2CCN(C3CCC(F)(F)CC3)C2)nc2ccccc12 (single isomer, unassigned) [Compound 4b]
# output 100 to 1000 nM

# input Query IC50 for CNC(=O)c1ccc(N2CCC(N3CCC(c4nc5ccc(Cl)cc5c(=O)[nH]4)C3)CC2)cn1 (racemic) [Compound 49rac]
# output < 10 nM

# input Query IC50 for CCc1ccc(C2CCN(C3CCN(c4ccc(C(=O)NC)nc4)CC3)C2)[nH]c1=O (single isomer, unassigned) [Compound 72a]
# output 10 to 100 nM

# input Query IC50 for CNC(=O)c1cc(C)c(N2CCC(N3CCC(c4cc5ccc(F)cc5c(=O)[nH]4)C3)CC2)cn1 (single isomer, unassigned) [Compound 202b]
# output < 10 nM

---

- System Name: UniProt P09874
- Run Description: PARP1 biochemical DELFIA assay (auto-PARylation)
- Set-up: recombinant full length human N-terminally FLAG-tagged PARP1
- Conditions Used: binned IC50, PARP1 biochemical DELFIA assay
pIC50: −log10 of the molar value.
Would you kindly list pIC50 for each of these compounds?

# input Fill in pIC50 for CCc1ccc(C2CCN(C3CCN(c4ccc(C(=O)NC)nc4F)CC3)C2)[nH]c1=O (single isomer, unassigned) [Compound 151a] tested with UniProt P09874.
# output > 8.00

# input Fill in pIC50 for CNC(=O)c1ccc(N2CCC(N3CCC(c4nc5ccccc5c(=O)[nH]4)C3)CC2)nc1 (single isomer, unassigned) [Compound 46b] tested with UniProt P09874.
# output 6.00 to 7.00

# input Fill in pIC50 for CNC(=O)c1ccc(N2CCC(N3CCC(c4cc5cccc(F)c5c(=O)[nH]4)C3)CC2)c(C)n1 (single isomer, unassigned) [Compound 206a] tested with UniProt P09874.
# output > 8.00

# input Fill in pIC50 for CNC(=O)c1ccc(N2CCC(N3CCC(c4nc5c(c(C(F)(F)F)nn5C)c(=O)[nH]4)C3)CC2)cn1 (single isomer, unassigned) [Compound 187b] tested with UniProt P09874.
# output > 8.00

# input Fill in pIC50 for CNC(=O)c1ccc(N2CCC(N3CCC(c4cc5ccc(F)cc5c(=O)[nH]4)C3)CC2)c(F)n1 (single isomer, unassigned) [Compound 174b] tested with UniProt P09874.
# output > 8.00

# input Fill in pIC50 for CNC(=O)c1ccc(N2CCC(N3CCC(c4ncc(C(F)(F)F)c(=O)[nH]4)C3)CC2)cn1 (single isomer, unassigned) [Compound 56b] tested with UniProt P09874.
# output 5.00 to 6.00
